Test system: Paracentrotus lividus
Assay: Antimitotic activity against sea urchin embryo model assessed as cleavage arrest of fertilized egg compound treated at 8 to 20 mins post-fertilization and 45 to 55 mins prior to first mitotic cycle completion measured 2.5 to 5.5 hrs post-fertilization
Assay type: functional
Parameter: EC

Sample answers from the record:
Smiles Repr | EC
COc1cc(-c2c(C#N)nnn2-c2cccc(Cl)c2)cc(OC)c1OC | 2 µM
COc1ccc(/C=C\c2cc(OC)c3c(c2)OCO3)cc1O | 0.01 µM
COc1ccc(-n2nnc(C#N)c2-c2cccc(OC)c2)cc1 | 1 µM
COc1ccc(-n2nnc(N)c2-c2cc(OC)c(OC)c(OC)c2)cc1 | >4 µM
COc1ccc(-c2c(C#N)nnn2-c2cc(OC)c(OC)c(OC)c2)cc1 | >4 µM
COc1ccc(-c2nn[nH]c2-c2cc(OC)c(OC)c(OC)c2)cc1 | 0.02 µM
COc1ccc(-c2cnnn2-c2cc(OC)c3c(c2)OCO3)cc1 | 0.1 µM
COc1ccc(/C=C\c2cc(OC)c(OC)c(OC)c2)cc1O | 0.01 µM

Batch request: EC for each of the following compounds.
1. Clc1cccc(-n2nncc2-c2ccccc2)c1
2. O=C(O)c1nnn(-c2cccc(Cl)c2)c1-c1ccccc1

>4 µM
>4 µM

---

For each record, write down the corresponding GI50.
Test: Growth inhibition of human UO31 cells after 48 hrs by SRB assay
Type: functional
Conditions: UO-31, 48 h
Give bare numbers, in nM.

Sample answers from the record:
Smiles Repr | GI50 [nM]
COc1ccc(-c2cnnn2-c2cc(OC)c3c(c2)OCO3)cc1 | 692
COc1ccc(-c2nn[nH]c2-c2cc(OC)c3c(c2OC)OCO3)cc1 | 2960
COc1ccc(-c2nn[nH]c2-c2cc(OC)c(OC)c(OC)c2)cc1 | 1210
COc1ccc(-c2nn[nH]c2-c2cc(OC)c3c(c2)OCO3)cc1 | 51

Moving on to another compound below.
response.value for COc1ccc(/C=C\c2cc(OC)c(OC)c(OC)c2)cc1O (field: GI50) = 19

---

Tested on: A549
Assay: Growth inhibition of human A549 cells after 48 hrs by SRB assay
Type: functional
Settings: A549, 48 h
Parameter: GI50

Smiles Repr | GI50
COc1ccc(-c2nn[nH]c2-c2cc(OC)c(OC)c(OC)c2)cc1 | < 10 nM
COc1ccc(/C=C\c2cc(OC)c(OC)c(OC)c2)cc1O | 16 nM
COc1ccc(-c2nn[nH]c2-c2cc(OC)c3c(c2)OCO3)cc1 | 24 nM
COc1ccc(-c2nn[nH]c2-c2cc(OC)c3c(c2OC)OCO3)cc1 | 532 nM

Moving on to another compound below.
response.value for COc1ccc(-c2cnnn2-c2cc(OC)c3c(c2)OCO3)cc1 (field: GI50) = 88 nM

---

Test system: 786-0
Assay: Growth inhibition of human 786-0 cells after 48 hrs by SRB assay
Assay type: functional
Conditions: 786-0, 48 h
For each record, write down the corresponding GI50.
Give bare numbers, in µM.

Smiles Repr | GI50, µM
COc1ccc(-c2nn[nH]c2-c2cc(OC)c3c(c2)OCO3)cc1 | 0.032
COc1ccc(/C=C\c2cc(OC)c(OC)c(OC)c2)cc1O | 0.1

Batch request: GI50 for each of the following compounds.
1. COc1ccc(-c2cnnn2-c2cc(OC)c3c(c2)OCO3)cc1
2. COc1ccc(-c2nn[nH]c2-c2cc(OC)c3c(c2OC)OCO3)cc1

1: 0.363; 2: 1.4

---

Tested on: MDA-MB-231
Test: Growth inhibition of human MDA-MB-231 cells after 48 hrs by SRB assay
Assay type: functional
Conditions: MDA-MB-231, 48 h
Parameter: GI50 (nM)
Give bare numbers, in nM.

Sample answers from the record:
Smiles Repr | GI50 (nM)
COc1ccc(-c2cnnn2-c2cc(OC)c3c(c2)OCO3)cc1 | 135
COc1ccc(-c2nn[nH]c2-c2cc(OC)c3c(c2)OCO3)cc1 | 45

Moving on to another compound below.
response.value for COc1ccc(-c2nn[nH]c2-c2cc(OC)c3c(c2OC)OCO3)cc1 (field: GI50) = 1130

---

For each record, write down the corresponding GI50.
Tested on: SNB-75
Test: Growth inhibition of human SNB75 cells after 48 hrs by SRB assay
Type: functional
Conditions: SNB-75, 48 h
Answers are plain numbers, in nM.

Molecule | Units | GI50
COc1ccc(-c2nn[nH]c2-c2cc(OC)c3c(c2OC)OCO3)cc1 | nM | 437
COc1ccc(-c2nn[nH]c2-c2cc(OC)c3c(c2)OCO3)cc1 | nM | 16
COc1ccc(-c2cnnn2-c2cc(OC)c3c(c2)OCO3)cc1 | nM | 119

Moving on to another molecule below.
response.value for COc1ccc(/C=C\c2cc(OC)c(OC)c(OC)c2)cc1O [COMBRETASTATIN A4] (field: GI50) = 8

The values you see were collected from ChEMBL document CHEMBL3102739.
